Cited source for all entries: patent US12091425B2

IC50 by entry:
# SYSTEM UNDER TEST: Mcl-1/Bim interaction, recombinant human Mcl-1 (171-327) (Homo sapiens)
# Construct: made in house
# ASSAY NAME: Cell free Mcl-1: Bim Affinity Assay (Mcl-1 HTRF)
# Format: binding
# ASSAY CONDITIONS: TR-FRET, 0.1 nM Mcl-1 (171-327), 0.05 nM biotin-Bim (51-76)
In your response, put the unit directly after the numeric value.

| COMPOUND | IC50 |
| --- | --- |
| C=CCN1CCCC[C@H](O)[C@@H]2CC[C@H]2CN2C[C@@]3(CCCc4cc(Cl)ccc43)COc3ccc(cc32)C(=O)NS1(=O)=O | 3.31 nM |
| O=C1NS(=O)(=O)[C@@H](CCS(=O)(=O)Cc2ccccc2)CC/C=C/[C@H](O)[C@@H]2CC[C@H]2CN2C[C@@]3(CCCc4cc(Cl)ccc43)COc3ccc1cc32 (single isomer, unassigned) [Example 162] | 0.979 nM |

Turning now to a further compound:
Q: Reported IC50 for COCCOC1C=CCC2COCCC2S(=O)(=O)NC(=O)c2ccc3c(c2)N(CC2CCC21)CC1(CCCc2cc(Cl)ccc21)CO3 (single isomer, unassigned) : what is it?
Result: 0.4 nM

* * *

# SYSTEM UNDER TEST: Mcl-1/Bim interaction, recombinant human Mcl-1 (171-327) (Homo sapiens, UniProt Q07820)
# Construct: made in house
# Sequence (Q07820 171-327): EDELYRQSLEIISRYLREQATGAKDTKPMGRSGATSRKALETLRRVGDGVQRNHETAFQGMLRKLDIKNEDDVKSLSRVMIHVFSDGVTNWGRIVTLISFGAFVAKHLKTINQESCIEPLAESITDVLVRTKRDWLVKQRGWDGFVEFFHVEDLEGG
# ASSAY NAME: Cell free Mcl-1: Bim Affinity Assay (Mcl-1 HTRF)
# Format: binding
# ASSAY CONDITIONS: cell free Mcl-1:Bim TR-FRET, recombinant human Mcl-1 (171-327)
ASSAY METRIC: pIC50
FYI, pIC50 means -log10 of a concentration in mol per litre.

As a guide, the following entries are already answered.
| COMPOUND | SYSTEM UNDER TEST | pIC50 |
| --- | --- | --- |
| O=C1NS(=O)(=O)CCCOC[C@@H](O)[C@@H]2CC[C@H]2CN2C[C@@]3(CCCc4cc(Cl)ccc43)COc3ccc1cc32 (single isomer, unassigned) [Example 923] | Mcl-1/Bim interaction, recombinant human Mcl-1 (171-327) (Homo sapiens, UniProt Q07820) | 7.75 |
| CC(=O)NCCO[C@H]1/C=C/C[C@H](C)[C@@H](C)S(=O)(=O)NC(=O)c2ccc3c(c2)N(C[C@@H]2CC[C@H]21)C[C@@]1(CCCc2cc(Cl)ccc21)CO3 [Example 732] | Mcl-1/Bim interaction, recombinant human Mcl-1 (171-327) (Homo sapiens, UniProt Q07820) | 9.61 |
| CC#CC1=CC(O)CCC(C)S(=O)(=O)NC(=O)c2ccc3c(c2)N(CC2CCC12)CC1(CCCc2cc(Cl)ccc21)CO3 (single isomer, unassigned) [Example 606] | Mcl-1/Bim interaction, recombinant human Mcl-1 (171-327) (Homo sapiens, UniProt Q07820) | 7.87 |
| CC(C)[C@@H]1CCCC[C@H](O)[C@@H]2CC[C@H]2CN2C[C@@]3(CCCc4cc(Cl)ccc43)COc3ccc(cc32)C(=O)NS1(=O)=O (single isomer, unassigned) [Example 752] | Mcl-1/Bim interaction, recombinant human Mcl-1 (171-327) (Homo sapiens, UniProt Q07820) | 8.36 |

Q: Reported pIC50 for COC[C@@H](O)C[C@@H]1CC/C=C/[C@H](OC)[C@@H]2CC[C@H]2CN2C[C@@]3(CCCc4cc(Cl)ccc43)COc3ccc(cc32)C(=O)NS1(=O)=O (single isomer, unassigned) [Example 659] : what is it?
Result: 8.47
